As shown below, each of these sequences has a reported counts value.
TESTED_TARGET: human thrombin (Homo sapiens, UniProt P00734)
Construct: biotin (chemical label)
ASSAY_TEXT: mRNA display selection against thrombin, selected sequences ranked by next-generation-sequencing frequency
Format: binding
CONDITION_DETAILS: Round 1 of selection, three washes; top binders ranked by frequency
ASSAY_METRIC: counts

seq_string="LKQTDFRTPI (MGCTSVHQETKKYQSLKQTDFRTPISYTYNYEHVDVWGCGSADYKDDDDKKK)" quantitative_readout=39
seq_string=TQPKLTIEQR quantitative_readout=42
seq_string="HRLQIATVYT (MGCTSVHQETKKYQSHRLQIATVYTSYTYNYEHVDVWGCGSADYKDDDDKKK)" quantitative_readout=42
seq_string="KCCTSMVIQL (MGCTSVHQETKKYQSKCCTSMVIQLSYTYNYEHVDVWGCGSADYKDDDDKKK)" quantitative_readout=38
seq_string="RFHLFILGTS (MGCTSVHQETKKYQSRFHLFILGTSSYTYNYEHVDVWGCGSADYKDDDDKKK)" quantitative_readout=46
seq_string="SQSERATPRY (MGCTSVHQETKKYQSSQSERATPRYSYTYNYEHVDVWGCGSADYKDDDDKKK)" quantitative_readout=47
seq_string="PPVLPQLVLL (MGCTSVHQETKKYQSPPVLPQLVLLSYTYNYEHVDVWGCGSADYKDDDDKKK)" quantitative_readout=44
seq_string="LQRAISSYSR (MGCTSVHQETKKYQSLQRAISSYSRSYTYNYEHVDVWGCGSADYKDDDDKKK)" quantitative_readout=38
seq_string="PLIHPRRGYA (MGCTSVHQETKKYQSPLIHPRRGYASYTYNYEHVDVWGCGSADYKDDDDKKK)" quantitative_readout=43
seq_string="HCDTLELRPA (MGCTSVHQETKKYQSHCDTLELRPASYTYNYEHVDVWGCGSADYKDDDDKKK)" quantitative_readout=40

###

TESTED_TARGET: human thrombin (Homo sapiens)
Construct: biotin (chemical label)
ASSAY_TEXT: mRNA display selection against thrombin, selected sequences ranked by next-generation-sequencing frequency
Assay type: binding
CONDITION_DETAILS: Round 1 of selection, three washes; share of recovered sequences
Method: 1 ml of the fusions from the previous step were added to 50 ul of M270 SA beads blocked with TBSTE+2% BSA at room temperature, and were incubated at room temperature for 30 min, and the supernatant was removed for binding with biotinylated thrombin. 8) Pre-Selected Fusions were Bound to 3 ul Biotinylated Human Thrombin at 1 U/ul at 4° C. for 1 h with Rotation 25 ul of M270 SA bead suspension was washed and blocked with TBSTE+2% BSA. […]
Attribute: percentage (%)
ASSAY_METRIC: percentage (%)

seq_string="PLIHPRRGYA (MGCTSVHQETKKYQSPLIHPRRGYASYTYNYEHVDVWGCGSADYKDDDDKKK)" tested_target="human thrombin (Homo sapiens)" result=1.3E−03%
seq_string="RFHLFILGTS (MGCTSVHQETKKYQSRFHLFILGTSSYTYNYEHVDVWGCGSADYKDDDDKKK)" tested_target="human thrombin (Homo sapiens)" result=1.4E−03%
seq_string="HRLQIATVYT (MGCTSVHQETKKYQSHRLQIATVYTSYTYNYEHVDVWGCGSADYKDDDDKKK)" tested_target="human thrombin (Homo sapiens)" result=1.3E−03%
seq_string="HCDTLELRPA (MGCTSVHQETKKYQSHCDTLELRPASYTYNYEHVDVWGCGSADYKDDDDKKK)" tested_target="human thrombin (Homo sapiens)" result=1.2E−03%
seq_string="LQRAISSYSR (MGCTSVHQETKKYQSLQRAISSYSRSYTYNYEHVDVWGCGSADYKDDDDKKK)" tested_target="human thrombin (Homo sapiens)" result=1.2E−03%
seq_string=TQPKLTIEQR tested_target="human thrombin (Homo sapiens)" result=1.3E−03%
seq_string="LKQTDFRTPI (MGCTSVHQETKKYQSLKQTDFRTPISYTYNYEHVDVWGCGSADYKDDDDKKK)" tested_target="human thrombin (Homo sapiens)" result=1.2E−03%
seq_string="PPVLPQLVLL (MGCTSVHQETKKYQSPPVLPQLVLLSYTYNYEHVDVWGCGSADYKDDDDKKK)" tested_target="human thrombin (Homo sapiens)" result=1.4E−03%
seq_string="KCCTSMVIQL (MGCTSVHQETKKYQSKCCTSMVIQLSYTYNYEHVDVWGCGSADYKDDDDKKK)" tested_target="human thrombin (Homo sapiens)" result=1.2E−03%
seq_string="SQSERATPRY (MGCTSVHQETKKYQSSQSERATPRYSYTYNYEHVDVWGCGSADYKDDDDKKK)" tested_target="human thrombin (Homo sapiens)" result=1.5E−03%

# credit: patent US20160312212A1
